Value source: paper PMC3982398

endpoint.label: amount of metabolite formed as percent of the total metabolites (%)
Give the value, in units of %, as a plain number.

Quick check: amount of metabolite formed as percent of the total metabolites on human placental microsomes, item COc1ccc(Cl)cc1C(=O)NCCc1ccc(S(=O)(=O)NC(=O)N[C@@H]2CCCC[C@H]2O)cc1 (relative stereo) [M4, 2-trans-hydroxycyclohexyl glyburide] ?
1

Quick check: amount of metabolite formed as percent of the total metabolites on human placental microsomes, item COc1ccc(Cl)cc1C(=O)NCCc1ccc(S(=O)(=O)NC(=O)N[C@H]2CC[C@H](O)CC2)cc1 [M1, 4-trans-hydroxycyclohexyl glyburide] ?
4

Quick check: amount of metabolite formed as percent of the total metabolites on human placental microsomes, item COc1ccc(Cl)cc1C(=O)NCCc1ccc(S(=O)(=O)NC(=O)N[C@H]2CCC[C@@H](O)C2)cc1 (relative stereo) [M2b, 3-cis-hydroxycyclohexyl glyburide] ?
1

Quick check: amount of metabolite formed as percent of the total metabolites on human placental microsomes, item COc1ccc(Cl)cc1C(=O)NCCc1ccc(S(=O)(=O)NC(=O)NC2CCCC(O)C2)cc1 (stereo not drawn) [M3, 3-trans-hydroxycyclohexyl glyburide] ?
1

* * *

endpoint.label: amount of metabolite formed as percent of the total metabolites (%)
Give the value, in units of %, as a plain number.

Quick check: amount of metabolite formed as percent of the total metabolites on human hepatic microsomes, item COc1ccc(Cl)cc1C(=O)NCCc1ccc(S(=O)(=O)NC(=O)N[C@@H]2CCCC[C@H]2O)cc1 (relative stereo) [M4, 2-trans-hydroxycyclohexyl glyburide] ?
4

Quick check: amount of metabolite formed as percent of the total metabolites on human hepatic microsomes, item COc1ccc(Cl)cc1C(=O)NCCc1ccc(S(=O)(=O)NC(=O)NC2CCCC(O)C2)cc1 (stereo not drawn) [M3, 3-trans-hydroxycyclohexyl glyburide] ?
6

Quick check: amount of metabolite formed as percent of the total metabolites on human hepatic microsomes, item COc1ccc(Cl)cc1C(=O)NCCc1ccc(S(=O)(=O)NC(=O)N[C@H]2CCC[C@@H](O)C2)cc1 (relative stereo) [M2b, 3-cis-hydroxycyclohexyl glyburide] ?
12

Quick check: amount of metabolite formed as percent of the total metabolites on human hepatic microsomes, item COc1ccc(Cl)cc1C(=O)NCCc1ccc(S(=O)(=O)NC(=O)N[C@H]2CC[C@@H](O)CC2)cc1 [M2a, 4-cis-hydroxycyclohexyl glyburide] ?
11
